- TARGET: Man(a1-2)Man(a1-2)Man(a1-3)[Man(a1-2)Man(a1-6)[Man(a1-3)]Man(a1-6)]Man(b1-4)GlcNAc(b1-4)GlcNAc
- RUN DESCRIPTION: glycan array binding signal (z-score within array); higher = stronger binding
- CONDITION LABEL: glycan notation: IUPAC condensed, linker removed
About 410 targets per protein were measured; listed, in parts, are those with the strongest signals and a random draw of the rest.
REPORTED ENDPOINT: glycan array binding signal (z-score)
Quick one: just the number, no unit, thanks!

// query Consider the binder shown here: Gal 7 (Homo sapiens) (protein) MSNVPHKSSLPEGIRPGTVLRIRGLVPPNASRFHVNLLCGEEGGSDAALHFNPRLDTSEVVFNSKEGGSWGREERGPGVPFGRGQPFEVLIIASDDGFKAVVGDAQYHHFRHRLPLARVRLVEVGGDVQLDSVRIF What is its recorded glycan array binding signal (z-score)?
// result -0.333

// query Same again, this time with DC SIGN CRD (Homo sapiens), Q9NNX6 (protein) QPCPWEWTFFQGNCYFMSNSQRNWHDSITACKEVGAQLVVIKSAEEQNFLQLQSSRSNRFTWMGLSDLNQEGTWQWVDGSPLLPSFKQYWNRGEPNNVGEEDCAEFSGNGWNDDKCNLAKFWICKKSAWSHPQFEK
// result 2.91

// query Same again, this time with RNase 1 (Homo sapiens) (protein) KESRAKKFQRQHMDSDSSPSSSSTYCNQMMRRRNMTQGRCKPVNTFVHEPLVDVQNVCFQEKVTCKNGQGNCYKSNSSMHITDCRLTNGSRYPNCAYRTSPKERHIIVACEGSPYVPVHFDASVEDST
// result -0.153

// query Same again, this time with Nictaba (Nicotiana tabacum), Q94EW1 (protein) MQGQWIAARDLSITWVDNPQYWTWKTVDPNIEVAELRRVAWLDIYGKIETKNLIRKTSYAVYLVFKLTDNPRELERATASLRFVNEVAEGAGIEGTTVFISKKKKLPGELGRFPHLRSDGWLEIKLGEFFNNLGEDGEVEMRLMEINDKTWKSGIIVKGFDIRPN
// result 4

// query Same again, this time with TbCVNHOb (Tuber borchii) (protein) GSHIGPYMSFYASSEDVRTIEEGGRTWLVGRARRADGSWQDIKLDLDNIIGNRDGHLTWGEQNFTQSASDIRFNFEGGSNVPVLRAKLRNAAGGEQESDLNLGERLTNNNGDLVFN
// result -0.449
